Recorded viability, T/C values for a group of molecules are listed next.
- System: 624824-186-R-J2-PDC multicell spheroids, viability
- Assay procedure: Anticancer human tumor 624824-186-R-J2-PDC patient-derived colon adenocarcinoma cell line growth inhibition [PI3K]
- Condition description: second compound 0.1 µM; first compound 0.316 µM; stronger effect = lower value
Quick note: give the figure in %, leave out the unit.

Reference set, count: 4
molecule="C[C@@H](NC(=O)c1ncnc(N)c1Cl)c1ncc(C(=O)Nc2cc(C(F)(F)F)c(Cl)cn2)s1 + CC(Nc1ccc2c(c1)OCCn1cc(N3C(=O)OCC3C(F)F)nc1-2)C(N)=O" property_measured="viability, T/C" recorded_result=65.7
molecule="C#Cc1c(F)ccc2cc(O)cc(-c3ncc4c(N5CC6CCC(C5)N6)nc(OCC56CCCN5CC(F)C6)nc4c3F)c12 (stereo not given) + CC(Nc1ccc2c(c1)OCCn1cc(N3C(=O)OCC3C(F)F)nc1-2)C(N)=O" property_measured="viability, T/C" recorded_result=80.6
molecule="CCCS(=O)(=O)Nc1ccc(F)c(C(=O)c2c[nH]c3ncc(-c4ccc(Cl)cc4)cc23)c1F + CC(Nc1ccc2c(c1)OCCn1cc(N3C(=O)OCC3C(F)F)nc1-2)C(N)=O" property_measured="viability, T/C" recorded_result=81.9
molecule="CCN1CCN(Cc2ccc(Nc3ncc(F)c(-c4cc(F)c5nc(C)n(C(C)C)c5c4)n3)nc2)CC1 + CC(Nc1ncnc2nc[nH]c12)c1cc2cccc(Cl)c2c(=O)n1-c1ccccc1" property_measured="viability, T/C" recorded_result=88.1

Field: next molecule
Measured viability, T/C, CC1(C)CCC(Nc2ncc(C(F)(F)F)c(-c3c[nH]c4c(P(C)(C)=O)c(C#N)ccc34)n2)CN1 (stereo not given) + CC(Nc1ccc2c(c1)OCCn1cc(N3C(=O)OCC3C(F)F)nc1-2)C(N)=O : 87.1

---

- Test system: 624824-186-R-J2-PDC multicell spheroids, viability
- Assay procedure: Anticancer human tumor 624824-186-R-J2-PDC cell line growth inhibition [PI3K];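 note: spheroids exposed to agents for 7 days before viability read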
- Condition description: curve of compound
Examples of compounds with documented IC50 follow.

compound=CC1(C)CCC(CN2CCN(c3ccc(C(=O)NS(=O)(=O)c4ccc(NCC5CCOCC5)c([N+](=O)[O-])c4)c(Oc4cnc5[nH]ccc5c4)c3)CC2)=C(c2ccc(Cl)cc2)C1 property_measured=IC50 recorded_result="> 10 µM"
compound=C[C@@H](NC(=O)c1ncnc(N)c1Cl)c1ncc(C(=O)Nc2cc(C(F)(F)F)c(Cl)cn2)s1 property_measured=IC50 recorded_result="> 10 µM"
compound=Cn1ncnc1[C@H]1c2n[nH]c(=O)c3cc(F)cc(c23)N[C@@H]1c1ccc(F)cc1 property_measured=IC50 recorded_result="> 0.1 µM"
compound=CC(C)n1nc(-c2ccc3oc(N)nc3c2)c2c(N)ncnc21 property_measured=IC50 recorded_result="> 0.1 µM"

IC50 reading for Cn1nccc1Nc1nccc(-c2ccn(C(CO)c3ccc(Cl)c(F)c3)c(=O)c2)n1 (stereo unspecified) : > 10 µM

Query CC1(C)CCC(Nc2ncc(C(F)(F)F)c(-c3c[nH]c4c(P(C)(C)=O)c(C#N)ccc34)n2)CN1 (stereo unspecified) yields IC50 of 4.11 µM [middle of 4 runs]

---

- System: 624824-186-R-J2-PDC multicell spheroids, viability
- Assay procedure: Anticancer human tumor 624824-186-R-J2-PDC cell line growth inhibition [PI3K];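 note: spheroids exposed to agents for 7 days before viability read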;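 for viability, T/C: 100% = DMSO vehicle treated spheroids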
- Condition description: second compound 0.00316 µM; first compound 1 µM; stronger effect = lower value
Property measured: viability, T/C (%)
The reply should contain only the number, in %.

Example compounds with recorded viability, T/C:
compound="CC1(C)CCC(CN2CCN(c3ccc(C(=O)NS(=O)(=O)c4ccc(NCC5CCOCC5)c([N+](=O)[O-])c4)c(Oc4cnc5[nH]ccc5c4)c3)CC2)=C(c2ccc(Cl)cc2)C1 + CC(Nc1ccc2c(c1)OCCn1cc(N3C(=O)OCC3C(F)F)nc1-2)C(N)=O" recorded_result=96.9
compound="CCCS(=O)(=O)Nc1ccc(F)c(C(=O)c2c[nH]c3ncc(-c4ccc(Cl)cc4)cc23)c1F + CC(Nc1ccc2c(c1)OCCn1cc(N3C(=O)OCC3C(F)F)nc1-2)C(N)=O" recorded_result=119
compound="CCN1CCN(Cc2ccc(Nc3ncc(F)c(-c4cc(F)c5nc(C)n(C(C)C)c5c4)n3)nc2)CC1 + COc1c(OCCCN2CCOCC2)ccc2c3n(c(=NC(=O)c4cnc(N)nc4)nc12)CCN3" recorded_result=106
compound="C[C@@H](NC(=O)c1ncnc(N)c1Cl)c1ncc(C(=O)Nc2cc(C(F)(F)F)c(Cl)cn2)s1 + COc1c(OCCCN2CCOCC2)ccc2c3n(c(=NC(=O)c4cnc(N)nc4)nc12)CCN3" recorded_result=84.4

Now look at this one.
Reported viability, T/C for CC(C)NCC(C(=O)N1CCN(c2ncnc3c2C(C)CC3O)CC1)c1ccc(Cl)cc1 (stereo not given) + CC(Nc1ccc2c(c1)OCCn1cc(N3C(=O)OCC3C(F)F)nc1-2)C(N)=O was 94.6
